system: DU-145 prostate; assay: NCI-60 one-dose screen, 48 h (100 = growth as untreated, 0 = no growth, -100 = all killed); settings: 10 µM unless noted
This is part of a sample that, as a whole, favours compounds with a hit. Of some 83,000 tested, about 20% had one in any assay.
Kindly apply the following: yes (1) if growth is less than 70%, no (0) in every other case.

| compound | cat |
| --- | --- |
| C#Cc1nc(C2=C(C)C(O)CC2)cs1 (centres undefined) | no (0) |
| C/C(=N/NC(N)=S)c1ccc(Nc2nc(SCC(C)C)nc(-c3ccc(F)cc3)c2C#N)cc1 | yes (1) |
| Cc1cccc(/C=C/c2nn3c(-c4ccco4)nnc3s2)c1 | no (0) |
| COc1ccc(-c2nc3ccc(-c4nnc(SCC(=O)Nc5ccc(C(C)=O)cc5)o4)cc3[nH]2)cc1 | no (0) |
| CN(C)CCCNc1c2ccc(Cl)cc2nc2c1oc1ccccc12 | yes (1) |

Task item: In plain terms, does O=C(N/N=C/c1ccc(Cl)s1)c1[nH]c2ccc(Br)cc2c1-c1ccccc1 come in under 70% for growth?
Reply: yes (1)

Task item: In plain terms, does CC(C)(C)OC(=O)N1C(=O)c2c(c3c4ccccc4[nH]c3c3ccc4ccccc4c23)C1=O come in under 70% for growth?
Reply: yes (1)

Task item: In plain terms, does O=c1[nH]c2ccccc2cc1CSc1ccccc1Nc1nccc(-c2ccc(C(F)(F)F)cc2)n1 come in under 70% for growth?
Reply: no (0)
